assay: Selectivity ratio of Ki for alpha1-adrenergic receptor in rat frontal cortex membrane to Ki for human 5-HT7 receptor; type: cell membranes
REPORTED ENDPOINT: Ratio Ki

Task: Give its Ratio Ki value. Item: CCC1(CCCCN2CCN(c3ccc(Cl)cc3)CC2)C(=O)Nc2ccc(F)cc21 (stereo not given)
Result: 68

Task: Could you do the same for CCC1(CCCCN2CCN(c3ccc(Cl)cc3)CC2)C(=O)Nc2cc(F)ccc21 (stereo not given) , please?
Result: 272

Task: Could you do the same for O=C1Nc2ccccc2C1CCCCN1CCN(c2cccc(Cl)c2)CC1 (stereo not given) , please?
Result: 53

Task: Could you do the same for CCC1(CCCCN2CCN(c3cccc(Cl)c3)CC2)C(=O)Nc2cc(F)c(Cl)cc21 (stereo not given) , please?
Result: 13

Task: Could you do the same for CCC1(CCCCN2CCN(c3ccc(Cl)cc3)CC2)C(=O)Nc2c1cc(Cl)c(F)c2Cl (stereo not given) , please?
Result: 4

a. CCC1(CCCCN2CCN(c3ccc(Cl)cc3)CC2)C(=O)Nc2cc(F)c(Cl)cc21 (stereo not given)
b. CCC1(CCCCN2CCN(c3ccc(Cl)cc3)CC2)C(=O)Nc2ccc(Cl)cc21 (stereo not given)
c. CCC1(CCCCN2CCN(c3ccc(Cl)cc3)CC2)C(=O)Nc2ccccc21 (stereo not given)
d. CCC1(CCCCN2CCN(c3ccc(Cl)cc3Cl)CC2)C(=O)Nc2ccccc21 (stereo not given)
Task: Write the entries in order, lowest recorded Ratio Ki first. # list labels per requested ordering
Result: d, a, b, c
(d: 3, a: 19, b: 159, c: 245)

A. CCC1(CCCCN2CCN(c3ccc(Cl)cc3)CC2)C(=O)Nc2c(Cl)cc(Cl)cc21 (stereo not given)
B. CCC1(CCCCN2CCN(c3cccc(Cl)c3)CC2)C(=O)Nc2ccccc21 (stereo not given)
C. O=C1Nc2ccccc2C1CCCCN1CCN(c2ccc(Cl)cc2)CC1 (stereo not given)
D. O=C1Nc2ccc(F)cc2C1CCCCN1CCN(c2ccc(Cl)cc2)CC1 (stereo not given)
Task: Write the entries in order, lowest recorded Ratio Ki first. # list labels per requested ordering
Result: D, C, A, B
(D: 3, C: 6, A: 12, B: 78)

1. CCC1(CCCCN2CCN(c3ccc(F)cc3)CC2)C(=O)Nc2ccccc21 (stereo not given)
2. CCC1(CCCCN2CCN(c3ccc(Cl)c(Cl)c3)CC2)C(=O)Nc2ccccc21 (stereo not given)
Task: Input pair: 1 , 2 . Output: entry with lower Ratio Ki. State your choice using its label.
Result: 1

* * *

Consider compounds characterized by their pKi with 5-hydroxytryptamine receptor 7 (Homo sapiens, UniProt P34969).
Sequence (P34969 whole entry): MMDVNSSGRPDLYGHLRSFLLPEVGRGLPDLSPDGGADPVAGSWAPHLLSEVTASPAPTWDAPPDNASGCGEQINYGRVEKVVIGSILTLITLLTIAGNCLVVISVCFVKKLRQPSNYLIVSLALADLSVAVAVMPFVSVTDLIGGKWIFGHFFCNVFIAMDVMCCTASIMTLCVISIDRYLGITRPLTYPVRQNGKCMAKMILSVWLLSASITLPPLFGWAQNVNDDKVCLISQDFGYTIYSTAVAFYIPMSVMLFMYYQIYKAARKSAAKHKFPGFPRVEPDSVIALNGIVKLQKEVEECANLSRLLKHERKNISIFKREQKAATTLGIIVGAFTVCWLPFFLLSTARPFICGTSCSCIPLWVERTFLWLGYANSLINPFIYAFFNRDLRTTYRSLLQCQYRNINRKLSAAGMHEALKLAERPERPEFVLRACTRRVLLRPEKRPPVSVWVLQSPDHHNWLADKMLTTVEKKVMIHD
pKi: −log10 of the molar value.
REPORTED ENDPOINT: pKi

Task: Give its pKi value. Item: CCC1(CCCCN2CC=C(c3cccc(Cl)c3)CC2)C(=O)Nc2ccc(F)cc21 (stereo not drawn)
Result: 7.28

P. CCC1(CCCCN2CCN(c3ccccc3Cl)CC2)C(=O)Nc2ccccc21 (stereo not drawn)
Q. O=C1Nc2ccccc2C1CCCCN1CCN(c2ccc(Cl)cc2)CC1 (stereo not drawn)
Task: Input pair: P , Q . Output: entry with lower pKi. State your choice using its label.
Result: P

* * *

target: 5-hydroxytryptamine receptor 1A (Rattus norvegicus) (UniProt P19327); test: Displacement of [3H]8-OH-DPAT from 5-HT1A receptor in rat frontal cortex membrane at 10^-7 M after 45 mins by scintillation counting; assay type: cell membranes
Sequence (P19327 whole entry): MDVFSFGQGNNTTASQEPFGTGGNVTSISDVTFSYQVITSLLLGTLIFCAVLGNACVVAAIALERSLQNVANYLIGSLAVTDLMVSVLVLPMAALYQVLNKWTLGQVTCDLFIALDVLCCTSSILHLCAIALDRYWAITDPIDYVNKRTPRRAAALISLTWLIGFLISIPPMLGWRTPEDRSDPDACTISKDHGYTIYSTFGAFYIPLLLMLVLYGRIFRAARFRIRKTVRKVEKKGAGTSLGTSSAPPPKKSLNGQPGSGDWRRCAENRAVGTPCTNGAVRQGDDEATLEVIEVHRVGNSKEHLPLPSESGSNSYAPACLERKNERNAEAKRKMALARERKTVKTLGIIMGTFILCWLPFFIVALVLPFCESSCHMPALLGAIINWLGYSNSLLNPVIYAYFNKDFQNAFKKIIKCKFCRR
REPORTED ENDPOINT: inhibition (%)

Example entries begin here.
Task: Give its inhibition value. Item: O=C1Nc2cc(F)ccc2C1CCCCN1CC=C(c2cccc(Cl)c2)CC1 (configuration not stated)
Result: 72

Task: Could you do the same for CCC1(CCCCN2CCN(c3ccc(Cl)cc3)CC2)C(=O)Nc2cc(F)c(Cl)cc21 (configuration not stated) , please?
Result: 0

Task: Could you do the same for CCC1(CCCCN2CCN(c3ccc(Cl)cc3)CC2)C(=O)Nc2ccccc21 (configuration not stated) , please?
Result: 11

Task: Could you do the same for CCC1(CCCCN2CC=C(c3ccc(F)cc3)CC2)C(=O)Nc2ccccc21 (configuration not stated) , please?
Result: 62

Task: Could you do the same for CCC1(CCCCN2CCN(c3ccc(Cl)c(Cl)c3)CC2)C(=O)Nc2ccccc21 (configuration not stated) , please?
Result: 11

1. CCC1(CCCCN2CCN(c3ccc(Cl)cc3Cl)CC2)C(=O)Nc2ccccc21 (configuration not stated)
2. CCC1(CCCCN2CCN(c3ccc(Cl)cc3)CC2)C(=O)Nc2c(Cl)cc(Cl)cc21 (configuration not stated)
3. CCC1(CCCCN2CCN(c3cccc(Cl)c3)CC2)C(=O)Nc2cc(F)c(Cl)cc21 (configuration not stated)
4. CCC1(CCCCN2CCN(c3ccc(Cl)cc3)CC2)C(=O)Nc2ccc(Cl)cc21 (configuration not stated)
Task: Write the entries in order, lowest recorded inhibition first. # list labels per requested ordering
Result: 4, 2, 1, 3
(4: 0%, 2: 5%, 1: 11%, 3: 16%)

* * *

Target: Adrenergic receptor alpha-1 (Rattus norvegicus, UniProt P15823+P23944+P43140)
Sequence (P15823 whole entry): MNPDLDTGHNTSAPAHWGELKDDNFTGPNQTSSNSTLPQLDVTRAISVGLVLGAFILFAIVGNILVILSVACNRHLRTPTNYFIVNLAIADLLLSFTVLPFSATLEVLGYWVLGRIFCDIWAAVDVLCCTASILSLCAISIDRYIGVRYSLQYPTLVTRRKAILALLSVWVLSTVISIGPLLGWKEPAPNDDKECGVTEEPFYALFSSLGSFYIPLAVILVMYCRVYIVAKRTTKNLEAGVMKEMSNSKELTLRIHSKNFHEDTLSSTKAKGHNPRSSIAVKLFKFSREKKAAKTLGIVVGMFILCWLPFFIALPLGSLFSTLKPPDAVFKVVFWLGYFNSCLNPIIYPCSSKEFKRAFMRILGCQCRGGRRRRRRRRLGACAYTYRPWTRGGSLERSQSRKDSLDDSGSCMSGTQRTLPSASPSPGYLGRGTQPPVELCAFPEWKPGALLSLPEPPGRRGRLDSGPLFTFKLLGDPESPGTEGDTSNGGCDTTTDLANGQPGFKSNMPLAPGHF
Sequence (P23944 whole entry): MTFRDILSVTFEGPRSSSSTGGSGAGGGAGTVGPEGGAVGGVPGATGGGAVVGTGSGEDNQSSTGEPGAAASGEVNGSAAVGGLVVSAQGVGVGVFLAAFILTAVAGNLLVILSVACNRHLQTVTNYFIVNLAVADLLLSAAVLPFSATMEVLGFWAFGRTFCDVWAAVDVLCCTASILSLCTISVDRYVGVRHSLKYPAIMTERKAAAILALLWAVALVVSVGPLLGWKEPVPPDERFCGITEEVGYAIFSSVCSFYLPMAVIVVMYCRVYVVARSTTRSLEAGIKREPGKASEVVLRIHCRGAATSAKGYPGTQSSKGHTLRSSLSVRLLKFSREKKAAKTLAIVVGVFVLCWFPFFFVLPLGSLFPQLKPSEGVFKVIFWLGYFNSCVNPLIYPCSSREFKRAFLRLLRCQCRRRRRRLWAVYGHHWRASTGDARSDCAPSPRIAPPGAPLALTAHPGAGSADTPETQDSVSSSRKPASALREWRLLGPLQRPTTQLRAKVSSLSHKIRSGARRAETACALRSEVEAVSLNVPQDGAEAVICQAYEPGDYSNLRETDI
Sequence (P43140 whole entry): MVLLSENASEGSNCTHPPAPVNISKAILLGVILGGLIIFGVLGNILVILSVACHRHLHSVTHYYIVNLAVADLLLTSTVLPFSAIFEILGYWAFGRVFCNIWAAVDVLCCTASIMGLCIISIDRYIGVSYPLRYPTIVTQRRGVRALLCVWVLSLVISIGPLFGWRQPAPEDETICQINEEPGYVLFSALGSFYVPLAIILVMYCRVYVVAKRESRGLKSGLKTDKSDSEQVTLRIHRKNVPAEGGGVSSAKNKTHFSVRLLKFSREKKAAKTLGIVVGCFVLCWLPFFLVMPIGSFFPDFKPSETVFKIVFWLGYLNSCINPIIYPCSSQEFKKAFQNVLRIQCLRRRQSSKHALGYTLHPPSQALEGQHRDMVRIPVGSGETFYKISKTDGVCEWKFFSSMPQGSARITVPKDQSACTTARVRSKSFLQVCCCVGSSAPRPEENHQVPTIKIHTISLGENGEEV
Experiment: Displacement of [3H]prazosin from alpha1-adrenergic receptor in rat frontal cortex membrane after 45 mins by scintillation spectrometry
Type: cell membranes
REPORTED ENDPOINT: Ki (nM)

Example entries begin here.
Task: Give its Ki value. Item: CCC1(CCCCN2CC=C(c3ccc(F)cc3)CC2)C(=O)Nc2ccccc21 (stereo unspecified)
Result: 46

Task: Could you do the same for CCC1(CCCCN2CCN(c3cccc(Cl)c3)CC2)C(=O)Nc2ccc(F)cc21 (stereo unspecified) , please?
Result: 46

Task: Could you do the same for CCC1(CCCCN2CCN(c3cccc(Cl)c3)CC2)C(=O)Nc2c1cc(Cl)c(F)c2Cl (stereo unspecified) , please?
Result: 97

Task: Could you do the same for CCC1(CCCCN2CCN(c3ccc(Cl)cc3)CC2)C(=O)Nc2ccc(F)cc21 (stereo unspecified) , please?
Result: 190

Task: Could you do the same for O=C1Nc2cc(F)ccc2C1CCCCN1CCN(c2ccccn2)CC1 (stereo unspecified) , please?
Result: 33

I. CCC1(CCCCN2CCN(c3ccccn3)CC2)C(=O)Nc2ccccc21 (stereo unspecified)
II. CCC1(CCCCN2CCN(c3cccc(Cl)c3)CC2)C(=O)Nc2ccccc21 (stereo unspecified)
Task: Input pair: I , II . Output: entry with lower Ki. State your choice using its label.
Result: II
(II: 31 nM, I: 150 nM)

I. CCC1(CCCCN2CCN(c3cccc(Cl)c3)CC2)C(=O)Nc2cc(F)c(Cl)cc21 (stereo unspecified)
II. CCC1(CCCCN2CCN(c3ccc(Cl)cc3)CC2)C(=O)Nc2ccc(Cl)cc21 (stereo unspecified)
Task: Input pair: I , II . Output: entry with lower Ki. State your choice using its label.
Result: I
(I: 117 nM, II: 175 nM)

a. CCC1(CCCCN2CCN(c3ccc(Cl)cc3)CC2)C(=O)Nc2c(Cl)cc(Cl)cc21 (stereo unspecified)
b. O=C1Nc2ccccc2C1CCCCN1CCN(c2ccc(Cl)cc2)CC1 (stereo unspecified)
Task: Input pair: a , b . Output: entry with lower Ki. State your choice using its label.
Result: b
(b: 42 nM, a: 110 nM)

I. CCC1(CCCCN2CCC(c3ccc(F)cc3)CC2)C(=O)Nc2ccccc21 (stereo unspecified)
II. CCC1(CCCCN2CCN(c3ccc(Cl)cc3)CC2)C(=O)Nc2c1cc(Cl)c(F)c2Cl (stereo unspecified)
III. CCC1(CCCCN2CCN(c3ccc(Cl)cc3)CC2)C(=O)Nc2cc(F)ccc21 (stereo unspecified)
IV. O=C1Nc2ccccc2C1CCCCN1CCN(c2ccc(F)cc2)CC1 (stereo unspecified)
Task: Write the entries in order, lowest recorded Ki first. # list labels per requested ordering
Result: IV, I, III, II

a. CCC1(CCCCN2CCN(c3ccc(Cl)cc3)CC2)C(=O)Nc2cc(F)c(Cl)cc21 (stereo unspecified)
b. CCC1(CCCCN2CCN(c3ccc(F)cc3)CC2)C(=O)Nc2ccccc21 (stereo unspecified)
Task: // pick larger Ki from pair: a vs b State your choice using its label.
Result: a
(a: 191 nM, b: 39 nM)

1. CCC1(CCCCN2CCN(c3ccc(Cl)cc3Cl)CC2)C(=O)Nc2ccccc21 (stereo unspecified)
2. CCC1(CCCCN2CCN(c3ccccc3OC)CC2)C(=O)Nc2ccccc21 (stereo unspecified)
3. O=C1Nc2ccccc2C1CCCCN1CCN(c2ccccn2)CC1 (stereo unspecified)
4. O=C1Nc2c(Cl)cc(Cl)cc2C1CCCCN1CCN(c2ccc(Cl)cc2)CC1 (stereo unspecified)
Task: Reorder: Ki, max to min. # list labels per requested ordering
Result: 4, 1, 3, 2
